// provenance: paper PMC10111420

- System: K. pneumoniae clinical isolates
- test-protocol: microbe, parasite or virus in culture
- applied-conditions: Klebsiella pneumoniae, read-out: MIC, KP 46
Below, each of the molecules is paired with its reported MIC value.
Number in µM, nothing else.

Here are 2 molecules together with their reported answers.
CO/N=C(\C(=O)N[C@@H]1C(=O)N2C(C(=O)O)=C(CSc3nc(=O)c(=O)[nH]n3C)CS[C@H]12)c1csc(N)n1: 1.9
NC[C@H]1O[C@H](O[C@H]2[C@H](O)[C@@H](O[C@H]3O[C@H](CO)[C@@H](O)[C@H](N)[C@H]3O)[C@H](N)C[C@@H]2N)[C@H](N)C[C@@H]1O: 3.5

Now look at this entry.
Record summary for `C[C@@H](O)[C@H]1C(=O)N2C(C(=O)O)=C(S[C@@H]3CN[C@H](C(=O)N(C)C)C3)[C@H](C)[C@H]12` : reported MIC = 0.4

====

- Tested on: K. pneumoniae clinical isolates
- test-protocol: microbe, parasite or virus in culture
- applied-conditions: Klebsiella pneumoniae, read-out: MIC, KP ST396
readout-name: MIC (µM)
Report the figure in µM without appending any unit label.

Observe how each entry below is paired with its result.
NC[C@H]1O[C@H](O[C@H]2[C@H](O)[C@@H](O[C@H]3O[C@H](CO)[C@@H](O)[C@H](N)[C@H]3O)[C@H](N)C[C@@H]2N)[C@H](N)C[C@@H]1O [TOB, tobramycin]: 4.6
CO/N=C(\C(=O)N[C@@H]1C(=O)N2C(C(=O)O)=C(CSc3nc(=O)c(=O)[nH]n3C)CS[C@H]12)c1csc(N)n1 [CRO, ceftriaxone]: 1.9

// compound C[C@@H](O)[C@H]1C(=O)N2C(C(=O)O)=C(S[C@@H]3CN[C@H](C(=O)N(C)C)C3)[C@H](C)[C@H]12 [MEM, meropenem] , assay K. pneumoniae clinical isolates, MIC value: 0.3
